The following molecules are shown together with reported cell proliferation values.
system: U2932 parental; assay: cell proliferation relative to vehicle (% of vehicle); higher = less growth inhibition; settings: 500 nM; 72 h
Counter-ions that a name gives are not always drawn.
Please give only the number in your answer, with no unit.

| Molecule | cell proliferation |
| --- | --- |
| CN(C)CC[C@H](CSc1ccccc1)Nc1ccc(S(=O)(=O)NC(=O)c2ccc(N3CCN(Cc4ccccc4-c4ccc(Cl)cc4)CC3)cc2)cc1[N+](=O)[O-] | 61.2 |
| CC#CC(=O)N1CCC[C@H]1c1nc(-c2ccc(C(=O)Nc3ccccn3)cc2)c2c(N)nccn12 | 75.6 |
| c1cc(-c2cnn3cc(-c4ccc(OCCN5CCCCC5)cc4)cnc23)ccn1 [Dorsomorphin 2HCl] | 98.3 |
| O=C1c2c(O)ccc(O)c2C(=O)c2c(NCCNCCO)ccc(NCCNCCO)c21 [Mitoxantrone HCl] | 7.06 |

Recorded cell proliferation for C[C@]12CCC(=O)C=C1CC[C@@H]1[C@@H]2[C@@H](O)C[C@@]2(C)[C@H]1CC[C@]2(O)C(=O)CO [Hydrocortisone] , please? 87.3

What value of measured cell proliferation is listed for COc1ccc(-c2nc(N3CCOCC3)c3sc(CN(C)c4ncc(C(=O)NO)cn4)cc3n2)cn1 ? 3.78

GET /values?readout=cell proliferation&item= CCCS(=O)(=O)Nc1ccc(F)c(C(=O)c2c[nH]c3ncc(-c4ccc(Cl)cc4)cc23)c1F [Vemurafenib (PLX4032, RG7204)] 100

----------
test system: U2932 TK216-resistant clone 2; assay: cell proliferation relative to vehicle (% of vehicle); higher = less growth inhibition; details: 500 nM; 72 h
# cell proliferation annotations
Lab note: write the figure by itself, no unit.

| Molecule | cell proliferation |
| --- | --- |
| Cc1nc(Nc2ncc(C(=O)Nc3c(C)cccc3Cl)s2)cc(N2CCN(CCO)CC2)n1 | 63.7 |
| NC(=O)c1ccc(-c2nc(-c3ccccn3)c(-c3ccc4c(c3)OCO4)[nH]2)cc1 | 109 |
| Cc1cc(NC(=O)c2cccc(NC(=O)/C=C/CN(C)C)c2)ccc1Nc1nccc(-c2cccnc2)n1 | 106 |

Quick one: cell proliferation of O=C(/C=C\n1cnc(-c2cc(C(F)(F)F)cc(C(F)(F)F)c2)n1)NNc1cnccn1 ? 36.3

Could you tell me which cell proliferation is on file for CN1CCCN(C(=O)c2cccc(-c3ccc(/C=C4/C(=O)Nc5ccc(Cl)cc54)o3)c2)CC1 ? 80.8

Form field: reported cell proliferation of C[C@@H](Nc1cc(F)cc(F)c1)c1cc(C(=O)N(C)C)cc2c(=O)cc(N3CCOCC3)oc12 83.1

# lookup: cell proliferation of Nc1ccn([C@@H]2O[C@H](CO)[C@@H](O)[C@@H]2O)c(=O)n1 24

If you can, please state the reported cell proliferation value of CC(C)C(=O)Nc1ccc([N+](=O)[O-])c(C(F)(F)F)c1 [Flutamide] . 87.2

# get_value(readout='cell proliferation', item= Nc1cccc2c1C(=O)N(C1CCC(=O)NC1=O)C2=O (stereo unspecified) [Pomalidomide] ) 94.7

If you can, please state the reported cell proliferation value of C=CCNC1=C2C[C@@H](C)C[C@H](OC)[C@H](O)[C@@H](C)/C=C(\C)[C@H](OC(N)=O)[C@@H](OC)/C=C\C=C(/C)C(=O)NC(=CC1=O)C2=O . 115

Quick one: cell proliferation for Cc1cnc(Nc2ccc(N3CCN(C)CC3)cc2)nc1Nc1cccc(S(=O)(=O)NC(C)(C)C)c1 ? 70.3

Which cell proliferation is listed for Cn1cnc2c(F)c(Nc3ccc(Br)cc3Cl)c(C(=O)NOCCO)cc21 ? 95.8

I am curious: what cell proliferation value has been reported for CCNC(=O)c1noc(-c2cc(C(C)C)c(O)cc2O)c1-c1ccc(CN2CCOCC2)cc1 ? 4.69
